# Tested on: southern armyworm (Spodopetra eridania Cramer)
# protocol_text: Mite/insect screen, SAW
# Assay type: in vivo
# study_conditions: Spodoptera eridania, percent mortality; SAW, SM & MA RATE 400 PPM; read-out: SAW RESULTS %
readout_type: mortality at 400 ppm
Number plus unit, in that order.

The cases that follow already have their mortality at 400 ppm on record.
In [3]: df
Out[3]:
                        structure_as_smiles  value_reported
0      CC(=O)N(CCC1CCCCC1)c1ccnc2c(F)cccc12              0%
1     Fc1cccc2c(NCCc3ccccc3Oc3ccccc3)ccnc12              0%
2  CC(=O)N(CCCCc1ccc(Cl)cc1)c1ccnc2c(F)cccc12              0%

Consider the record given below.
Value lookup for mortality at 400 ppm; key = Fc1cccc2c(NCCc3cccc(-c4ccccc4)c3)ccnc12
0%

----------
Entries annotated with measured mortality at 400 ppm
# System: Twospotted spider mites (Tetranychus urticae Koch)
# protocol_text: Mite/insect screen, SM
# Format: in vivo
# study_conditions: Tetranychus urticae, foliar, percent mortality; rate 400 ppm, foliar spray on squash; read-out: SM RESULTS %
Give your result in % as a bare value.

Worked examples follow.
                                   molecule          readout_type  unit_string  value_reported
0  CC(=O)N(CCc1ccc(Cl)cc1)c1cc(N(CCc2ccc(Cl)cc2)C(C)=O)c2ccccc2n1  mortality at 400 ppm            %               0
1  COc1ccccc1CCOc1ccnc2ccccc12 [Example 229, 4-[2-(2-methoxyphenyl)ethoxy]quinoline]  mortality at 400 ppm            %               0
2  CCC(COc1ccnc2c(F)cccc12)c1ccc(-c2ccccc2)cc1 (stereo not drawn)  mortality at 400 ppm            %              80

Consider the molecule Fc1ccc(CCOc2ccnc3cc(Cl)ccc23)cc1 and give its measured mortality at 400 ppm.
0

Requested read-out: mortality at 400 ppm. Entry: COc1ccccc1CCOc1ccnc2c(F)cccc12
0

Consider the molecule CC(C)(CNc1ccnc2c(Cl)cccc12)c1ccccc1 and give its measured mortality at 400 ppm.
0

Endpoint output: mortality at 400 ppm of Fc1ccc(CCOc2ccnc3c(F)cccc23)c(F)c1 . Value?
60

Any idea what its mortality at 400 ppm is? The molecule is Clc1cccc2c(NCCc3cccc(Oc4ccccc4)c3)ccnc12
0

Which mortality at 400 ppm is listed for c1ccc(CCCc2ccnc3ccccc23)cc1 ?
90

----------
# System: Twospotted spider mites (Tetranychus urticae Koch)
# protocol_text: Mite/insect screen, SM
# Assay type: in vivo
# study_conditions: Tetranychus urticae, foliar, percent mortality; rate 400 ppm, foliar spray on squash; read-out: SM RESULTS %
Recorded mortality at 400 ppm for the following compounds
Quick note: give the figure in %, leave out the unit.

>>> df
                        structure_as_smiles                               test_target          readout_type  value_reported
0       Cc1cc(OCCC2CCCCC2)c2c(Cl)ccc(C)c2n1  Twospotted spider mites (Tetranychus urticae Koch)  mortality at 400 ppm               0
1    CCOc1ccc(CCOc2ccnc3cc(Cl)cc(Cl)c23)cc1  Twospotted spider mites (Tetranychus urticae Koch)  mortality at 400 ppm               0
2  CC(=O)N(CCC1=CCCCC1)c1ccnc2c(C)cc(C)cc12  Twospotted spider mites (Tetranychus urticae Koch)  mortality at 400 ppm               0
3           Cc1cc(C)c2nccc(NCCC3CCCCC3)c2c1  Twospotted spider mites (Tetranychus urticae Koch)  mortality at 400 ppm               0
4       CCCCOc1ccc(CCOc2ccnc3c(F)cccc23)cc1  Twospotted spider mites (Tetranychus urticae Koch)  mortality at 400 ppm               0
5    CC(C)(C)c1ccc(CCOc2ccnc3cc(F)ccc23)cc1  Twospotted spider mites (Tetranychus urticae Koch)  mortality at 400 ppm              80
6    CC(C)(C)c1ccc(CCOc2ccnc3c(F)cccc23)cc1  Twospotted spider mites (Tetranychus urticae Koch)  mortality at 400 ppm              90
7       Fc1ccc(CCOc2ccnc3cc(Cl)ccc23)c(F)c1  Twospotted spider mites (Tetranychus urticae Koch)  mortality at 400 ppm              60
8           Cc1cc(OCCC2CCCCC2)c2cc(F)ccc2n1  Twospotted spider mites (Tetranychus urticae Koch)  mortality at 400 ppm               0
9           Cc1ccc(CCOc2ccnc3cc(F)ccc23)cc1  Twospotted spider mites (Tetranychus urticae Koch)  mortality at 400 ppm               0

Requested read-out: mortality at 400 ppm. Entry: Cc1ccc(CCOc2cc(Cl)nc3c(F)cccc23)cc1
0

// returns reported mortality at 400 ppm for input C1=C(CCNc2ccc3nccc(NCCC4=CCCCC4)c3c2)CCCC1
0

Which measured mortality at 400 ppm value corresponds to Fc1cccc2c(OCCCCCCCCOc3ccccc3)ccnc12 ?
0

Item Clc1ccc2c(OCCc3ccccc3)ccnc2c1 has what recorded mortality at 400 ppm?
0

Given the compound Fc1cccc2c(NCCc3ccc(Cl)cc3)cc(NCCc3ccc(Cl)cc3)nc12 , what is its reported mortality at 400 ppm?
0

Bench note: what mortality at 400 ppm did CCOc1ccc2nc(C)cc(OCCCOCc3ccccc3)c2c1 show?
0

Query: mortality at 400 ppm; subject: Fc1cccc2c(OCCc3cccc(Sc4ccccc4)c3)ccnc12
0
